Target: EPHB1 (UniProt P54762)
Sequence (P54762 whole entry, looked up): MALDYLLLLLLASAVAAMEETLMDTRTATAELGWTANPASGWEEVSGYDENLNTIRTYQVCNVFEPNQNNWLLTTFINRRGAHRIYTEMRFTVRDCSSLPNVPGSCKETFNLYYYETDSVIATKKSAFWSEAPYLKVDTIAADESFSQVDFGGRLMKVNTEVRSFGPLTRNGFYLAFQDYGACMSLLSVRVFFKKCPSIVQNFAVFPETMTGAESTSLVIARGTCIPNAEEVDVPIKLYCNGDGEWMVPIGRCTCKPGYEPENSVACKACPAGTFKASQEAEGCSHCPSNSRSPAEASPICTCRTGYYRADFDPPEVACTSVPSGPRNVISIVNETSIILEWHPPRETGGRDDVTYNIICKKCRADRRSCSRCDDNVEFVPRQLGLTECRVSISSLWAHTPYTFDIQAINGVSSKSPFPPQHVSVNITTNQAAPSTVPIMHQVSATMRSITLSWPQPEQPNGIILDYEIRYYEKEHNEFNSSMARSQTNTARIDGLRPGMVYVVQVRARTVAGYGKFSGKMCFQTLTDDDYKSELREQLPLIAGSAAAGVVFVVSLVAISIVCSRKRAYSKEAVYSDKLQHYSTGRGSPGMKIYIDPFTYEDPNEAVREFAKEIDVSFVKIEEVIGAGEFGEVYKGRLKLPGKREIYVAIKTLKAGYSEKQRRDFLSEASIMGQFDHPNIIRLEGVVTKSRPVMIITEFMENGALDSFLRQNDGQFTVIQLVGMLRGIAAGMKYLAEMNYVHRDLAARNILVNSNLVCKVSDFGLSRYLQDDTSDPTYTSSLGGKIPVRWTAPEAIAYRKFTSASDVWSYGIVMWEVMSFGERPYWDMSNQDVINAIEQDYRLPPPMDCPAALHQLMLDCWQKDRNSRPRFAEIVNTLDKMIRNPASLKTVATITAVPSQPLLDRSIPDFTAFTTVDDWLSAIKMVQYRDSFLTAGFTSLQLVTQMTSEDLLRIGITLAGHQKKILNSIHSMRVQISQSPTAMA
Assay: phosphorylation enrichment, bacterial display (enrichment ratio); higher = better substrate or ligand; peptides without Tyr show the background
QUANTITY: phosphorylation enrichment

> print(dat)
                        sequence.entry                    quantity  meas.value
 1      YSKDIYKRVTG [PANK2_Y405_N404I]  phosphorylation enrichment        0.38
 2        ESPGLCGFLNV [BCR_Y910_Y910C]  phosphorylation enrichment       0.595
 3  PRPACYPSTVS [CACNA1C_Y1832_G1831C]  phosphorylation enrichment       0.575
 4      IRKVLYANNVM [ACTA1_Y296_D294V]  phosphorylation enrichment       0.311
 5       SVTCTYSPAIN [TP53_Y126_L130I]  phosphorylation enrichment           1
 6         SGSIHYSHVPR [GLB1_Y57_R59H]  phosphorylation enrichment       0.426
 7             AFGTVYKGLWI [EGFR_Y727]  phosphorylation enrichment       0.532
 8    SHISGYAALRR [RAPH1_Y1226_T1228A]  phosphorylation enrichment       0.328
 9   FVSLIYTNFEA [GSTP1_Y109_I105V_YF]  phosphorylation enrichment        1.13
10     SWSTSYSGFRC [NKAPL_Y91_Y96C_YF]  phosphorylation enrichment       0.616
11        QRRLIYRCQVG [NR2E3_Y81_R76Q]  phosphorylation enrichment       0.622
12   IGERTYGQVFK [CDK13_Y716_G714R_YF]  phosphorylation enrichment       0.468
13           KQRKEYMHRRQ [IQGAP2_Y710]  phosphorylation enrichment       0.551
14   ITGNGYYFRVF [MYBPC3_Y1135_I1131T]  phosphorylation enrichment       0.561
15       CTTIHYNYRCN [TP53_Y234_M237R]  phosphorylation enrichment       0.594
16             QKPLDYYRVNL [GALE_Y104]  phosphorylation enrichment        6.99
17       MCITQYKRESQ [PRNP_Y218_E219K]  phosphorylation enrichment       0.384
18             LTERGYSFTTT [ACTB_Y198]  phosphorylation enrichment       0.472
19             GSSKIYFLHPD [TLR5_Y108]  phosphorylation enrichment       0.529
20          ISDNAYQFMLT [MYH7_Y162_YF]  phosphorylation enrichment       0.662
21  GCLSKYSGVFS [TUBGCP6_Y1624_V1621L]  phosphorylation enrichment        0.52
22     ITNHIYTWVDP [DFNB31_Y234_V229I]  phosphorylation enrichment        2.92
23    ESDGAYIQRMQ [CCDC137_Y125_H127Q]  phosphorylation enrichment       0.474
24    PSQRRYLFFFS [PTEN_Y174_V175L_YF]  phosphorylation enrichment       0.818
25             HLVLNYGVCVC [JAK2_Y613]  phosphorylation enrichment        1.61
26         PIPAAYNRFDQ [CDC73_Y290_YF]  phosphorylation enrichment       0.643
27                         KPGVNYFFQVS  phosphorylation enrichment       0.695
28      EDSEYYRAFEE [CASQ2_Y179_K180R]  phosphorylation enrichment       0.823
29        GNLLIYTEFGN [HGD_Y166_K171N]  phosphorylation enrichment        2.71

* * *

Biological target: Fes (UniProt P07332)
Sequence (P07332 whole entry, looked up): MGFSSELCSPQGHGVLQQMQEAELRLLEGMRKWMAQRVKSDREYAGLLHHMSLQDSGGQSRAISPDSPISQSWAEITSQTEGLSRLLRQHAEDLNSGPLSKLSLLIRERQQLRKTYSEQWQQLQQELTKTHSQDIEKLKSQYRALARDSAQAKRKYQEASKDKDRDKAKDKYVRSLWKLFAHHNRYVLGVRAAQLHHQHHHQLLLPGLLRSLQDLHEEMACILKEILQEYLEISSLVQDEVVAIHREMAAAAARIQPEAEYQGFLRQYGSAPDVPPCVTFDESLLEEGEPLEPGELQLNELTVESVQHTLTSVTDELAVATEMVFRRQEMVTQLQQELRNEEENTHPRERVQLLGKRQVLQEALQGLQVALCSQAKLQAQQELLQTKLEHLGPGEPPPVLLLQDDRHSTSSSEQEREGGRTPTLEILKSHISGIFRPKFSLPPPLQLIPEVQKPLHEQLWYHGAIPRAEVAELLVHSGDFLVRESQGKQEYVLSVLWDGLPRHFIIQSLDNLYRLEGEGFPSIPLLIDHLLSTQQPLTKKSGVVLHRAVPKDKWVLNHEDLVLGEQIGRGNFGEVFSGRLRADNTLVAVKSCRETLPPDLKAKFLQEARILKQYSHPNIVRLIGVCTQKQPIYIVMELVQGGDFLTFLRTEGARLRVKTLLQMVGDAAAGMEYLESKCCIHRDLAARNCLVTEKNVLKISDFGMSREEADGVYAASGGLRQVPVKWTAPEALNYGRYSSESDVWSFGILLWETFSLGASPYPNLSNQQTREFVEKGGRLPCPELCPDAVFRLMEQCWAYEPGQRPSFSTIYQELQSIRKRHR
Test: phosphorylation enrichment, bacterial display (enrichment ratio); higher = better substrate or ligand; peptides without Tyr show the background
phosphorylation enrichment vs 1: at or above is fulfilled, below is not fulfilled.

> print(dat)
                         sequence.entry       subject.of.test    group.label
 1      VEFAKYGSLQG [RET_Y809_R813Q_YF]  Fes (UniProt P07332)  not fulfilled
 2              KLPDAYERLIL [G6PD_Y437]  Fes (UniProt P07332)  not fulfilled
 3       FLENFYDLEKD [MMP3_Y42_K45E_YF]  Fes (UniProt P07332)      fulfilled
 4     GDYLSYREFHL [ERBIN_Y1107_S1112L]  Fes (UniProt P07332)  not fulfilled
 5        DDPRTYQKYGY [OAS1_Y362_R361T]  Fes (UniProt P07332)  not fulfilled
 6           YPPTHYIRRVP [SLC4A11_Y820]  Fes (UniProt P07332)  not fulfilled
 7        LSAPCYLNRIS [HEXA_Y421_W420C]  Fes (UniProt P07332)  not fulfilled
 8          LFSINYLHFGE [KDM4C_Y201_YF]  Fes (UniProt P07332)      fulfilled
 9       EDSEYYRAFEE [CASQ2_Y179_K180R]  Fes (UniProt P07332)      fulfilled
10        QHVPDYRQNVF [PCDHGA1_Y890_YF]  Fes (UniProt P07332)      fulfilled
11       VATRWYWSPEL [CDKL5_Y177_R178W]  Fes (UniProt P07332)      fulfilled
12        PYSSPYENSLI [EPOR_Y489_N487S]  Fes (UniProt P07332)  not fulfilled
13        FDDGKYVFVVT [RPS6KA3_Y488_YF]  Fes (UniProt P07332)      fulfilled
14             ASSPVYVPTTR [GATA6_Y188]  Fes (UniProt P07332)  not fulfilled
15              AAETTYDKILK [GDNF_Y156]  Fes (UniProt P07332)      fulfilled
16           NKYTTYLPRLP [C9orf24_Y126]  Fes (UniProt P07332)  not fulfilled
17         DLAHKYHGGGG [HBB_Y146_A141D]  Fes (UniProt P07332)  not fulfilled
18               TFRPPYYHRNC [HGD_Y333]  Fes (UniProt P07332)  not fulfilled
19        VLTPKYRGGGG [HBA1_Y141_S139P]  Fes (UniProt P07332)  not fulfilled
20  DRSSLYLVAGP [KIAA1614_Y1083_N1078D]  Fes (UniProt P07332)      fulfilled
21        PRDGEYFTLQI [TP53_Y327_L323R]  Fes (UniProt P07332)      fulfilled
22             RSRSPYSSRHS [CDK13_Y415]  Fes (UniProt P07332)  not fulfilled
23     SFLSFYTSHVQ [NEFL_Y443_P440L_YF]  Fes (UniProt P07332)      fulfilled
24     MPIPMYDGSQA [CARMIL1_Y637_A639G]  Fes (UniProt P07332)  not fulfilled
25       TSYQMYDKGLV [IARS2_Y231_F227S]  Fes (UniProt P07332)  not fulfilled

* * *

Target: Grb2 SH2 (UniProt P62993)
Sequence (P62993 whole entry, looked up): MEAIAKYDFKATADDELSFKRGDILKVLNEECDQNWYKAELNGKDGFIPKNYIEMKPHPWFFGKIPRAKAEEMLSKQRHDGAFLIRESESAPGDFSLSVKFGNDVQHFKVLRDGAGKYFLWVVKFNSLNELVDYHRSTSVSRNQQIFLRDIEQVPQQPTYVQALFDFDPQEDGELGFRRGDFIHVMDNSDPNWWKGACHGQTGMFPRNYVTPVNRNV
Assay: SH2 binding enrichment of the phosphorylated peptide, bacterial display (enrichment ratio); higher = better substrate or ligand; peptides without Tyr show the background
In this section, each of the sequences is paired with its reported SH2 binding enrichment.
QUANTITY: SH2 binding enrichment

> print(dat)
                         sequence.entry                quantity  meas.value
 1               KDQGTYEDYVE [MYL6_Y86]  SH2 binding enrichment       0.755
 2       DKMEAYNINET [TEKT4_Y210_D213N]  SH2 binding enrichment       0.951
 3        MKSIKYMDKEV [CCDC60_Y41_I46V]  SH2 binding enrichment       0.742
 4     EEQKKYYNAVK [SCN5A_Y1494_M1498V]  SH2 binding enrichment        1.06
 5              GSSKIYFLHPD [TLR5_Y108]  SH2 binding enrichment        1.16
 6  EEQKKYFNATK [SCN5A_Y1494_M1498T_YF]  SH2 binding enrichment       0.766
 7               SGAWSYNTSTE [SELE_Y24]  SH2 binding enrichment       0.802
 8    RESFKYLPSSL [CXXC1_Y218_F219L_YF]  SH2 binding enrichment       0.919
 9     RRNVFYFSFLL [PTEN_Y177_Y174N_YF]  SH2 binding enrichment        1.34
10              KELAPYDENWF [RPS19_Y48]  SH2 binding enrichment       0.957
11       VATRWYQSPEL [CDKL5_Y177_R178Q]  SH2 binding enrichment       0.983
12       ADRSCYDLSCR [GARS1_Y467_H472R]  SH2 binding enrichment        1.06
13        LSAPCYLNRIS [HEXA_Y421_W420C]  SH2 binding enrichment        1.14
14           EIELAYRRRPP [GRIN2B_Y1109]  SH2 binding enrichment       0.642
